Ref: patent US20220025023A1

target: T1, recombinant human full-length TDP-43 (human, UniProt Q13148 1-414); experiment: SPR affinity (Biacore 8K), antibody captured on anti-mouse IgG, TDP-43 monomer as analyte, single cycle kinetics, 1:1 model
T1 construct: Recombinant full-length protein; also called FL TDP-43; recFL TDP-43
T1 sequence (Q13148 whole entry): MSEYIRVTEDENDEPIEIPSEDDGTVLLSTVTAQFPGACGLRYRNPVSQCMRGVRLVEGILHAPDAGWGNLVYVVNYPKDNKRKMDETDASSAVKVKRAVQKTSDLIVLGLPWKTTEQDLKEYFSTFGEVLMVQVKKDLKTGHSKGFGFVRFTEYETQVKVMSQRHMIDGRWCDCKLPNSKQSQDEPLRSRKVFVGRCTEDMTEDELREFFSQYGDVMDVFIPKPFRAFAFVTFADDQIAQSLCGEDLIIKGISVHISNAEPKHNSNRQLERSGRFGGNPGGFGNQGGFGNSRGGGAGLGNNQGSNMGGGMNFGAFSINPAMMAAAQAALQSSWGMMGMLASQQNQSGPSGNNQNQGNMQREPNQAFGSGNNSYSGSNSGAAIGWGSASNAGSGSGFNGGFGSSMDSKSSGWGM
ENDPOINT NAME: pKd
Would you please state pKd, meaning minus log10 of the concentration in mol/L, as a bare number?

In the examples that follow, each entry is paired with its recorded pKd.
BINDER	pKd
ACI-7062-410H3-Ab1 (antibody, IgG1, V domains shown, also called 410H3B9; clone 7) VH: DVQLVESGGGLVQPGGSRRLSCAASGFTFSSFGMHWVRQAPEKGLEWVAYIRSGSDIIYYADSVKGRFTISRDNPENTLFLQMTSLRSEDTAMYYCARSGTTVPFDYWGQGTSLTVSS VL: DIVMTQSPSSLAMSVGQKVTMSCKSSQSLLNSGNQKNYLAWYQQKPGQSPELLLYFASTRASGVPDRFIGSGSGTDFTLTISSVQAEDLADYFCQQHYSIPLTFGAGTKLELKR	6.62
ACI-7062-412A7-Ab1 (antibody, IgG2b, V domains shown, also called 412A7B7; clone 9) VH: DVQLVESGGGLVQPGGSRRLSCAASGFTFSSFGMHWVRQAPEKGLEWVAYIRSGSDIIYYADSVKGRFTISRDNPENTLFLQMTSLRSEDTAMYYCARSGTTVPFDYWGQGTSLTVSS VL: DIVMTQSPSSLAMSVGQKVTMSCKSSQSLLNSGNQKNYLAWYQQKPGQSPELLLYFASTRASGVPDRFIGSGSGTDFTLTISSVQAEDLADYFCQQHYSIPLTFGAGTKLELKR	7.18
ACI-7062-416A11-Ab1 (antibody, IgG2a, V domains shown, also called 416A11B3; clone 18) VH: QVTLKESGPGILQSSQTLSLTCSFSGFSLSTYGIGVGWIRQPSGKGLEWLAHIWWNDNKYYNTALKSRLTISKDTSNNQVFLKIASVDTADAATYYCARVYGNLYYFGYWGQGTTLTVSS VL: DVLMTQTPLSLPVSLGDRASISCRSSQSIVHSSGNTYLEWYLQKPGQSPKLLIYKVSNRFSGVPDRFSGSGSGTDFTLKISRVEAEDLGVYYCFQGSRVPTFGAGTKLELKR	6.51

Then there is this binder:
*Q* Could you tell me which pKd is on file for ACI-7062-406E3-Ab2 (antibody, IgG2a, V domains shown, also called 406E3G10; clone 6) VH: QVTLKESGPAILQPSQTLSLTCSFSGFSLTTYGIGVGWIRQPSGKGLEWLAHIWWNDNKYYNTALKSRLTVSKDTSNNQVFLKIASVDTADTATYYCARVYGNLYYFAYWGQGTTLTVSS VL: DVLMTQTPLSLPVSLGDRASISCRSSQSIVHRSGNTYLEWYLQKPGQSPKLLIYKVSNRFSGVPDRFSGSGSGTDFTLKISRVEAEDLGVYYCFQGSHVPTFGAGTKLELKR ?
*A* 7.00
